# FcγIIa (OD read at 405 nm) per record follows
Tested on: FcγIIa
Experiment: Reverse ELISA: inhibition of PAP immune complex binding to FcγIIa coated plates
Settings: PAP pre-incubated with peptide one hour; lower OD = more inhibition; positive control 1.599
No end group written: not given here.
metric: FcγIIa (OD read at 405 nm)

1) Asp-Cys-Ala-Trp-His-Leu-Gly-Glu-Leu-Val-Trp-Cys-Thr [SEQ ID NO:2] ... 0.561
2) Asp-Cys-Ala-Phe-His-Leu-Gly-Glu-Leu-Val-Trp-Cys-Thr (DCAFHLGELVWCT) [SEQ ID NO:3] ... 0.660
3) Ala-Pro-Pro-Asp-Cys-Ala-Trp-His-Leu-Gly-Glu-Leu-Val-Trp-Cys-Thr (APPDCAWHLGELVWCT) [SEQ ID NO:16] ... 0.509
4) APPCARHLGELVWCT [SEQ ID NO:14] ... 0.956
5) APPCAFHLGELVWCT (not fully specified; cysteine pairing not given here) [SEQ ID NO:15] ... 0.605
6) APPCAWHLGELVWCT [SEQ ID NO:13] ... 0.658
